- Tested on: A549
- test_protocol: Cytotoxicity against human A549 cells
- Format: functional, cell-based
measurement_name: IC50

Recorded IC50, per entry:
molecule="CC(=O)O[C@@H]1[C@H]2C(C)=C[C@@H](O)[C@H](OC(C)=O)[C@]2(C)[C@@H](OC(C)=O)[C@H](OC(C)=O)C/C(C)=C\\[C@@H]2OC(=O)[C@]3(C)O[C@@]213 [STECHOLIDE J]" target_of_assay=A549 measurement_name=IC50 experimental_result="> 10 µg/mL"
molecule="CCCC(=O)O[C@H]1C[C@@H](OC(C)=O)/C(C)=C\\[C@@H]2OC(=O)[C@]3(C)O[C@@]23[C@@H](OC(C)=O)[C@H]2[C@@]3(C)O[C@H]3C[C@H](OC(C)=O)[C@]12C [STECHOLIDE A ACETATE]" target_of_assay=A549 measurement_name=IC50 experimental_result="> 10 µg/mL"
molecule="CC(=O)O[C@H]1C[C@@H]2O[C@]2(C)[C@@H]2[C@H](OC(C)=O)[C@@]34O[C@@]3(C)C(=O)O[C@H]4/C=C(/C)[C@H](OC(C)=O)C[C@H](OC(C)=O)[C@]12C [STECHOLIDE C ACETATE]" target_of_assay=A549 measurement_name=IC50 experimental_result="> 10 µg/mL"

Next:
In: Value lookup for IC50; key = CC(=O)O[C@H]1CC/C(C)=C\[C@@H]2OC(=O)[C@]3(C)O[C@@]23[C@@H](OC(C)=O)[C@H]2[C@@]3(C)O[C@H]3C[C@H](OC(C)=O)[C@]12C
Out: > 10 µg/mL
